Every entry's value here was drawn from ChEMBL document CHEMBL4609979.

System: Rattus norvegicus
Assay: Analgesic activity in Wistar rat assessed as increase in tail flick latency at 0.4 uM/kg administered intranasally and measured upto 120 mins by tail-flick test
Type: functional, organism-based
Activity calls are given as the source filed them. No cut-off for these calls is given here. Where a SMILES comes first, the peptide text is derived from it. [ ]: non-standard residue; d: D form. βAla = NCCC(=O)O
# output must be one of True = active, False = inactive

Answered examples (3):
Could you check what this test reported for CSCC[C@H](NC(=O)[C@H](Cc1ccccc1)NC(=O)CNC(=O)CNC(=O)[C@H](Cc1ccc(O)cc1)NC(=O)CCN)C(=O)NCCC(=O)O (H-[βAla]YGGFM[βAla]-OH) ?
True

Look up the recorded call for NCCC(=O)N[C@@H](Cc1ccc(O)cc1)C(=O)NCC(=O)NCC(=O)N[C@@H](Cc1ccccc1)C(N)=O (H-[βAla]YGGF-NH2) in this test.
True

Look up the recorded call for NCCC(=O)N[C@@H](Cc1ccc(O)cc1)C(=O)NCC(=O)N[C@@H](Cc1ccccc1)C(N)=O (H-[βAla]YGF-NH2) in this test.
False

Now look at this one.
Hey, what did the test say about `CSCC[C@H](NC(=O)[C@H](Cc1ccccc1)NC(=O)CNC(=O)CNC(=O)[C@@H](N)Cc1ccc(O)cc1)C(=O)O` ?
True
